Recorded normalised viability for the following compounds
# Tested on: SK-BR-3
# method summary: normalised viability (% of control), CellTiter-Blue; higher = more viable cells (about 100 = DMSO control)
# reported conditions: 10 nM; incubation time: 72 h
// units = %; emit number, no label

Here's what some known entries look like.
COCC1(CO)C(=O)C2CCN1CC2 (stereo unspecified) [Prima-1 Met] :: 96.1
Cc1ccc(NC(=O)c2ccc(CN3CCN(C)CC3)cc2)cc1Nc1nc(-c2cccnc2)cs1 [Masitinib] :: 99.6
N#Cc1ccc(COC[C@H]2O[C@@H](n3c(NCc4ccc(Cl)c(Cl)c4)nc4c(N)ncnc43)[C@H](O)[C@@H]2O)cc1 :: 115

Quick check: normalised viability of CN(C)CCOc1ccc(/C(=C(/CCCl)c2ccccc2)c2ccccc2)cc1 [Toremifene] ?
113

// same read-out, input: C=C1C[C@@H]2[C@H](CC[C@]3(C)C(=O)CC[C@@H]23)[C@@]2(C)C=CC(=O)C=C12 [Exemestane]
85.2

// same read-out, input: COc1cc(OC2CCN(C)CC2)ccc1Nc1ncc2c(n1)n(C1CCCC1)c(=O)n2C [AZ 3146]
104

---

# Test system: HCC1599
# method summary: normalised response (% of control), CellTiter-Glo; higher = more viable cells (100 = DMSO, 0 = benzethonium chloride kill control)
# reported conditions: incubation time: 72 h
measured parameter: normalised response (%)
// units = %; emit number, no label

Quick check: normalised response of N#Cc1ccc(COC[C@H]2O[C@@H](n3c(NCc4ccc(Cl)c(Cl)c4)nc4c(N)ncnc43)[C@H](O)[C@@H]2O)cc1 (10000 nM) ?
65.7

---

# System: MDA-MB-453
# method summary: normalised viability (% of control), CellTiter-Blue; higher = more viable cells (about 100 = DMSO control)
# reported conditions: incubation time: 72 h
Recorded normalised viability for the following compounds
Please state the number and follow it with the unit.

Here's what some known entries look like.
COC(=O)c1ccc2c(c1)NC(=O)/C2=C(\Nc1ccc(N(C)C(=O)CN2CCN(C)CC2)cc1)c1ccccc1 [BIBF 1120] (3000 nM) :: 59.8%
S=P(N1CC1)(N1CC1)N1CC1 [Thio-TEPA] (30000 nM) :: 97%
CN(C)CCOc1ccc(/C(=C(/CCCl)c2ccccc2)c2ccccc2)cc1 [Toremifene] (3000 nM) :: 99.7%

MDA-MB-453 / normalised viability / NC(=O)c1ccc(I)c([N+](=O)[O-])c1 [Iniparib] (3000 nM) : value?
85.1%

// same read-out, input: COCC[n+]1c2c(n(Cc3cnccn3)c1C)C(=O)c1ccccc1C2=O [YM155] (3000 nM)
2.38%

// same read-out, input: C=C1C[C@@H]2[C@H](CC[C@]3(C)C(=O)CC[C@@H]23)[C@@]2(C)C=CC(=O)C=C12 [Exemestane] (3000 nM)
79%

// same read-out, input: CN(C)c1nc(N(C)C)nc(N(C)C)n1 [Altretamine] (3000 nM)
108%

---

# Test system: DU-4475
# method summary: normalised response (% of control), CellTiter-Glo; higher = more viable cells (100 = DMSO, 0 = benzethonium chloride kill control)
# reported conditions: incubation time: 72 h
Classify by measured normalised response: Y if it is equal to or exceeds 80%, N if it is smaller.

Cc1cc(Nc2cc(CN3CCOCC3)c3nc(C)c(Cc4ccc(Cl)cc4F)n3n2)n[nH]1 [Gandotinib] (10000 nM) :: N
c1ccc2c(CCNc3ccc(Nc4ccncc4)cc3)c[nH]c2c1 [Serdemetan] (10000 nM) :: N

State whether the measured normalised response reaches 80%, counting equality as reaching it, for O=C(Nc1cccnc1)N1CCC(Cc2cccc(Oc3ccc(C(F)(F)F)cn3)c2)CC1 [PF-3845] (10000 nM)
Y

// same read-out, input: CNC(=O)c1ccc(N2C(=S)N(c3ccc(C#N)c(C(F)(F)F)c3)C(=O)C2(C)C)cc1F [Enzalutamide] (10000 nM)
Y

// same read-out, input: CNC(=O)c1cc(Oc2ccc(NC(=O)Nc3ccc(Cl)c(C(F)(F)F)c3)c(F)c2)ccn1 [Regorafenib] (10000 nM)
N
